biological target: Fes (UniProt P07332); assay: phosphorylation enrichment, bacterial display (enrichment ratio); higher = better substrate or ligand; peptides without Tyr show the background;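 further: 11-residue human phosphosite peptides and single-mutation variants displayed on the E. coli surface, counted by deep sequencing, each peptide's frequency after selection divided by its frequency in the unselected input library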;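 further: frequency after pTyr selection over input frequency; kinase dosed for 20-30% of maximal phosphorylation in three min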
Sequence (P07332 whole entry, looked up): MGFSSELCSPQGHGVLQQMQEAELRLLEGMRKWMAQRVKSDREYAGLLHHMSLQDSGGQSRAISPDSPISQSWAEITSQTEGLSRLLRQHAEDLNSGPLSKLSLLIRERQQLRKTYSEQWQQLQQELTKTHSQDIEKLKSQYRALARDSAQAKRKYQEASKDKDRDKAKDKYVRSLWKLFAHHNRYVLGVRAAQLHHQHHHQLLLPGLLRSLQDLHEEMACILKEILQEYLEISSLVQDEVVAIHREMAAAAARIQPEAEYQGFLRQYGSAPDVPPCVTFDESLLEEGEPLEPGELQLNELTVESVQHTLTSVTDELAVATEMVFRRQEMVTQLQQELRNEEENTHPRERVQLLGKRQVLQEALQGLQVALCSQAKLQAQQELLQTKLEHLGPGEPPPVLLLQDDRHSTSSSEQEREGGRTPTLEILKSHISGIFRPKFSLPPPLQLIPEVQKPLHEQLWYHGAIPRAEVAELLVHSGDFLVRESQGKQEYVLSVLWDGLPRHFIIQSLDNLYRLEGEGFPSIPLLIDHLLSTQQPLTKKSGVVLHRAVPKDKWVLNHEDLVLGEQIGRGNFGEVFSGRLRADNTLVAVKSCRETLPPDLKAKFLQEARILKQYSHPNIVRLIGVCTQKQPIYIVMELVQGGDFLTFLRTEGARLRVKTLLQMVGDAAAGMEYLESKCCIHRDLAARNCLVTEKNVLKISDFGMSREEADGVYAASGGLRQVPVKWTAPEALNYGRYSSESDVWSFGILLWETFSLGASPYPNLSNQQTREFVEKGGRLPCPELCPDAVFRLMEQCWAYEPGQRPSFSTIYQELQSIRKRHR
Label rule, in plain words: phosphorylation enrichment of 0.8 and up is yes (1), under 0.8 is no (0).

Q. Textbook exercise: given the entry LEKRAYICAHP [ACAD9_Y611] , state whether its phosphorylation enrichment is greater than or equal to 0.8.
A. yes (1)

Q. Textbook exercise: given the entry RIVEIYSRRLQ [GCH1_Y175] , state whether its phosphorylation enrichment is greater than or equal to 0.8.
A. yes (1)

Q. Textbook exercise: given the entry RRGMPYGGLGD [TGM1_Y312_R315L] , state whether its phosphorylation enrichment is greater than or equal to 0.8.
A. no (0)

Q. Textbook exercise: given the entry TLLERYGMTEI [ACSF3_Y355] , state whether its phosphorylation enrichment is greater than or equal to 0.8.
A. yes (1)

Q. Textbook exercise: given the entry IVAREYFSEAD [CAMK2A_Y106_YF] , state whether its phosphorylation enrichment is greater than or equal to 0.8.
A. yes (1)

Q. Textbook exercise: given the entry LLIVEYAKYGS [RET_Y806] , state whether its phosphorylation enrichment is greater than or equal to 0.8.
A. yes (1)

Q. Textbook exercise: given the entry YRASYYRKGGC [ALK_Y1283] , state whether its phosphorylation enrichment is greater than or equal to 0.8.
A. no (0)

Q. Textbook exercise: given the entry PVGDVYKKKGL [NMNAT1_Y55_A54V] , state whether its phosphorylation enrichment is greater than or equal to 0.8.
A. no (0)

Q. Textbook exercise: given the entry ASKEPYYVHCI [MYO1D_Y585_R588H] , state whether its phosphorylation enrichment is greater than or equal to 0.8.
A. yes (1)

Q. Textbook exercise: given the entry RPFVFYFSFLL [PTEN_Y177_R173P_YF] , state whether its phosphorylation enrichment is greater than or equal to 0.8.
A. yes (1)

Q. Textbook exercise: given the entry SARHHYESLQT [BIN1_Y157] , state whether its phosphorylation enrichment is greater than or equal to 0.8.
A. no (0)

Q. Textbook exercise: given the entry KLKNAYEESLE [MYH7_Y1488] , state whether its phosphorylation enrichment is greater than or equal to 0.8.
A. yes (1)

Q. Textbook exercise: given the entry VRTGIYHGREP [PIK3CA_Y361_G364R] , state whether its phosphorylation enrichment is greater than or equal to 0.8.
A. no (0)

Q. Textbook exercise: given the entry MPQNEYIELHR [NSA2_Y6] , state whether its phosphorylation enrichment is greater than or equal to 0.8.
A. no (0)

Q. Textbook exercise: given the entry QNTGDYFDLFG [PTPN11_Y62_YF] , state whether its phosphorylation enrichment is greater than or equal to 0.8.
A. yes (1)
